Where do these numbers come from? They come from patent EP0628545A1.

# Test system: intraocular pressure
# experiment.summary: Reducing effect of intraocular pressure after instillation into the rabbit eye (Experiment 1)
# Type: in vivo, Japanese White rabbits
# particulars: 2 hr after administration; 0.1% solution, 50 µl instilled into left eye; vehicle-corrected; average of three samples
# Experimental: For example, in a standard laboratory test the following data shown in Table 1 and 2 and in the accompanying Figure 1 were obtained. Average of the value of three samples are shown as each data. […] Male Japanese White rabbits weighing about 3.0 kg were lightly held and the intraocular pressure was measured by Applanation Pneumatonograph after corneal anesthesia with instillation of 0.4% oxybuprocaine hydrochloride solution. […]
Please respond with reported Δ IOP, Reducing Effects of Intraocular Pressure for every item in the list.
Give just the number in mm Hg; leave the unit off.

Query block: Give the measured Δ IOP, Reducing Effects of Intraocular Pressure of CCCCC[C@H](O)CC[C@@H]1[C@@H](C/C=C\CCCC(=O)OC)[C@@H](O)C[C@H]1O [Compared compound 3, 13,14-dihydro-PGF2α methyl ester] .
Result block: -1.3

Query block: Please give the measured Δ IOP, Reducing Effects of Intraocular Pressure for this compound: CCCCC[C@H](O)/C=C/[C@@H]1[C@@H](C/C=C\CCCC(=O)OC(C)C)[C@@H](O)C[C@@H]1O [Compared compound 1, 11-epi-PGF2α isopropyl ester]
Result block: 1.5

Query block: Returns the measured Δ IOP, Reducing Effects of Intraocular Pressure for the input compound. Input: CCCCC[C@H](O)/C=C/[C@@H]1[C@@H](C/C=C\CCCC(=O)OC(C)C)[C@@H](O)C[C@H]1O [Compared compound 2, PGF2α isopropyl ester]
Result block: 3.7

Query block: Sample CCCCC[C@H](O)CC[C@@H]1[C@@H](C/C=C\CCCC(=O)OC(C)C)[C@H](O)C[C@H]1O [Example 1, 13,14-dihydro-PGF2β isopropyl ester] — what was its Δ IOP, Reducing Effects of Intraocular Pressure?
Result block: -5.5
